Kindly supply the reported GI50 values for the records listed here.
Tested on: SNB-19
assay notes: NCI tumour cell line growth inhibition, 48 h
Calls of active or inactive are those of the source. No stated cut-off is given here; in the data, active = GI50 up to about 1.1 µM and inactive = higher.

The compound listed as COc1cc(-c2cc(=O)c3cc(C)c(C)c(C(=O)O)c3o2)cc(OC)c1OC has a reported GI50 of > 100 µM (inactive)

The compound listed as Cc1cc(NS(=O)(=O)c2ccc(Nc3c4ccccc4nc4c(C(=O)N5CCN(CCO)CC5)cccc34)cc2)no1 has a reported GI50 of > 100 µM (inactive)

The compound listed as Cc1ccc(S(N)(=O)=O)cc1 [P-TOLUENESULFONAMIDE] has a reported GI50 of > 1000 µM (inactive)

The compound listed as C[C@@H]1CCC2C(C)(C)C(/C=C\C=O)C3(C)OC213 (some centres not stated) has a reported GI50 of 45.4 µM (inactive)

The compound listed as O=c1[nH]nc(Cc2ccccc2)n1/N=C/c1cccnc1 has a reported GI50 of > 100 µM (inactive)

The compound listed as Nc1nc(O)nc2snnc12 has a reported GI50 of > 87.9 µM (inactive)

The compound listed as COc1ccc(C(OCC2OC(n3ccc(NC(=O)c4ccccc4)nc3=O)C(O)C2O)(c2ccccc2)c2ccccc2)cc1 (configuration not stated) has a reported GI50 of 3.44 µM (inactive)

The compound listed as Cc1ccc(/C=C2\N=C(N3CCCCC3)NC2=O)cc1 has a reported GI50 of > 100 µM (inactive)

The compound listed as CC(=O)OCC1OC(n2c(C)c(C)cc(C#N)c2=S)C(OC(C)=O)C(OC(C)=O)C1OC(C)=O (configuration not stated) has a reported GI50 of > 100 µM (inactive)

The compound listed as CCCCCCCCCCCC/C=C\CC[C@@H](O)[C@H](O)CC[C@H](O)[C@@H]1CC[C@@H](CCCCCCCC2=C[C@H](C)OC2=O)O1 [GIGANTRIONENIN] has a reported GI50 of 1.83 µM (inactive)

The compound listed as COC(=O)[C@@H]1[C@H](O)CC[C@H]2[C@@]1(C)CC[C@@H](C)[C@]2(COC(C)=O)CC(=O)c1ccoc1 has a reported GI50 of > 50 µM (inactive)

The compound listed as CCOC(=O)C1Sc2ccccc2N=C1C (configuration not stated) has a reported GI50 of > 100 µM (inactive)

The compound listed as COC(=O)[C@H](Cc1c[nH]c2ccccc12)NC(=O)OCC1OC(n2cc(C)c(=O)[nH]c2=O)CC1N=[N+]=[N-] (some centres not stated) has a reported GI50 of > 100 µM (inactive)

The compound listed as CN(C)CC1CN/C(=N\C(=O)Nc2ccccc2)O1 (configuration not stated) has a reported GI50 of > 100 µM (inactive)

The compound listed as O=C(Cc1ccccc1F)NC1=C(Cl)C(=O)c2ccccc2C1=O has a reported GI50 of 2.84 µM (inactive)

The compound listed as O=C1OC(CC(=O)c2ccc(Cl)cc2Cl)C(Cl)=C1Cl (configuration not stated) has a reported GI50 of > 49.2 µM (inactive)

The compound listed as N#Cc1sc2c(c1OC(=O)c1ccc(C(F)(F)F)cc1)c(=O)n(-c1ccccc1)c(=S)n2-c1ccccc1 has a reported GI50 of 34 µM (inactive)

The compound listed as COc1ccc(/C=C/CN(C)CCc2ccccc2)cc1OC has a reported GI50 of > 100 µM (inactive)

The compound listed as C/C(=N\NC(=S)N1CCN(c2ccccn2)CC1)c1ncccn1 has a reported GI50 of 2.56 µM (inactive)

The compound listed as COc1ccc(C2c3cc4c(cc3C(O)C3CCC(=O)N23)OCO4)cc1 (configuration not stated) has a reported GI50 of > 100 µM (inactive)

The compound listed as CC(C)(Br)C(Br)CCC(C)(Br)C(Br)CO (configuration not stated) has a reported GI50 of > 10 µM (inactive)

The compound listed as CC1(O)/C(=N/O)CC2CC1C2(C)C (configuration not stated) has a reported GI50 of > 100 µM (inactive)

The compound listed as C=CC1(C(=O)O)CCC(C(C)(C)C)CC1 (configuration not stated) has a reported GI50 of > 100 µM (inactive)

The compound listed as C1=Cc2nc1c(-c1ccncc1)c1ccc([n-]1)c(-c1ccncc1)c1nc(c(-c3ccncc3)c3ccc([n-]3)c2-c2ccncc2)C=C1.[Zn+2] has a reported GI50 of > 100 µM (inactive)

The compound listed as CCOC(=O)c1c(SCCCN2CCCCC2)n(-c2ccccc2)c(=S)n(-c2ccccc2)c1=O has a reported GI50 of 16.7 µM (inactive)

The compound listed as C[Si](C)(C)CC(N)=O has a reported GI50 of > 100 µM (inactive)

The compound listed as S=C1OC2CCCC[C@H]2O1 (some centres not stated) has a reported GI50 of > 100 µM (inactive)

The compound listed as CC1=C2C(=CO[C@H](C)[C@H]2C)C(O)=C(C(=O)O)C1=O [CITRININ] has a reported GI50 of 21.9 µM (inactive)

The compound listed as COC(=O)/C=C\C(C#N)(C#N)/N=C/c1ccccc1 has a reported GI50 of 23.9 µM (inactive)

The compound listed as O=C1C=C(Nc2ccccc2C(=O)CC(=O)C(=O)Nc2ccc(Cl)cc2)c2ccccc2C1=O has a reported GI50 of 14 µM (inactive)

The compound listed as O=C(O)c1ccccc1Cc1ccco1 has a reported GI50 of > 100 µM (inactive)

The compound listed as O=C(/C=C/c1ccc(O)c(O)c1)OCCCc1ccccc1 has a reported GI50 of 15 µM (inactive)

The compound listed as COC(=O)[C@]1(c2cc3ccccc3[nH]2)CC2CN(C(=O)OCc3ccccc3)C1C=C2OC (some centres not stated) has a reported GI50 of 42.1 µM (inactive)

The compound listed as CCCCCCCCCC(=O)CC(=O)c1c(O)cc(O)cc1O has a reported GI50 of 22.6 µM (inactive)

The compound listed as N#CC1=C(N)C(C#N)(C#N)C(c2ccc(F)cc2)C=C1C1CC1 (configuration not stated) has a reported GI50 of 13.2 µM (inactive)

The compound listed as Br[C@@H]1[C@H]2c3nc4ccccc4nc3[C@@H]1C[C@H]2Br has a reported GI50 of > 100 µM (inactive)

The compound listed as O=C1Nc2ccccc2C1Cc1ccccc1 (configuration not stated) has a reported GI50 of > 100 µM (inactive)

The compound listed as N#Cc1ccc(/C=N/NC(=O)CSCC(=O)N/N=C/c2ccc(C#N)cc2)cc1 has a reported GI50 of > 100 µM (inactive)

The compound listed as CC(=O)O[C@H]1CCC2[C@@H]3CC[C@]4(C)CC(=O)C=C[C@]4(C)C3CC[C@@]21C (some centres not stated) has a reported GI50 of 51.3 µM (inactive)

The compound listed as CCCn1c(SCCSc2c3ccccc3c(-c3nc(F)nc(F)n3)n2CCC)c2ccccc2c1-c1nc(F)nc(F)n1 has a reported GI50 of > 100 µM (inactive)

The compound listed as COc1ccc(N2C(=O)C3c4[nH]c5ccccc5c4C4CCCCC4C3C2=O)cc1 (configuration not stated) has a reported GI50 of 50.6 µM (inactive)

The compound listed as Cc1cc(O)c2c(c1O)C(=O)c1cccc(O)c1C2=O [ISLANDICIN] has a reported GI50 of > 100 µM (inactive)

---

Test system: SK-MEL-2
assay notes: NCI tumour cell line growth inhibition, 48 h
Structures can show the parent of a compound that is named as a salt. The source made the active and inactive calls. No stated cut-off is given here; in the data, active = GI50 up to about 1.1 µM and inactive = higher.
// classify into YES for active, NO for inactive

QUERY: Please indicate how the test categorized Cc1ccc2ccc(-c3ccccc3)c3c2c1C(=O)c1ccccc1C3=O .
RESULT: NO

QUERY: Please indicate how the test categorized Cc1ccc(/C=N/Nc2nncc3ccccc23)s1 .
RESULT: NO

QUERY: Please indicate how the test categorized CCN(CC)CCNc1c(OC)cc(C)c2sc3ccccc3c(=O)c12 .
RESULT: NO

QUERY: Please indicate how the test categorized COc1ccc(Nc2ccc3ccccc3c2-c2c(O)ccc3ccccc23)cc1 .
RESULT: NO

QUERY: Please indicate how the test categorized N#Cc1cc([N+](=O)[O-])ccc1NC(=O)C(=O)Nc1n[nH]c(N)n1 .
RESULT: NO

QUERY: Please indicate how the test categorized CN1CCCOC(c2ccc(Cl)cc2)O1 (stereo not given) .
RESULT: NO

QUERY: Please indicate how the test categorized C/C(=N/NC(=S)Nc1ccccc1Cl)c1cccc(/C(C)=N\NC(=S)Nc2ccccc2Cl)n1 .
RESULT: NO

QUERY: Please indicate how the test categorized CCN(CC)C(=S)N/N=C/c1cc([N+](=O)[O-])ccc1O .
RESULT: NO

QUERY: Please indicate how the test categorized O=C(CNC(=O)OCc1ccccc1)NCCCCC(NC(=O)OCc1ccccc1)C(=O)O (stereo not given) .
RESULT: NO

QUERY: Please indicate how the test categorized Nc1ccc(I)cn1 .
RESULT: NO

QUERY: Please indicate how the test categorized O=C(Nc1ccccc1)N(CCCCN(Cc1ccccc1)C(=O)Nc1ccccc1)Cc1ccccc1 .
RESULT: NO

QUERY: Please indicate how the test categorized C[C@]12CCC3[C@@H](CC[C@@H]4c5nonc5CC[C@]34C)C1CC[C@@H]2O (stereo not given in full) .
RESULT: NO

QUERY: Please indicate how the test categorized Nc1ccc2c(c1)CC1c3ccccc3C(C2)c2ccccc21 .
RESULT: NO

QUERY: Please indicate how the test categorized CCCN(CCC)C(=S)Sc1nc(C)nc(N2CCN(c3nc(C)nc(SC(=S)N(CCC)CCC)c3[N+](=O)[O-])CC2)c1[N+](=O)[O-] .
RESULT: NO

QUERY: Please indicate how the test categorized Cc1cc(-c2ccccc2)nc(Nc2nc3ccccc3o2)n1 .
RESULT: NO

QUERY: Please indicate how the test categorized CC(=O)NC(CCCNCc1ccccc1)C(=O)NCc1ccccc1 (stereo not given) .
RESULT: NO

QUERY: Please indicate how the test categorized Cn1ccnc1Oc1ccc(Cl)cc1 .
RESULT: NO

QUERY: Please indicate how the test categorized COc1ccc(-n2nnc3c(C#N)c(-c4ccccc4)c(C)n3c2=O)cc1 .
RESULT: NO

QUERY: Please indicate how the test categorized C/C(=C\c1ccccc1)C(=O)NCc1ccc(C(=O)NCCc2ccccc2)cc1 .
RESULT: NO

QUERY: Please indicate how the test categorized Cc1nc2c(o1)/C(=N\c1ccccc1)c1nc(C)oc1/C2=N/c1ccccc1 .
RESULT: NO

QUERY: Please indicate how the test categorized O=C1Nc2ccccc2C1Cc1ccccc1 (stereo not given) .
RESULT: NO

QUERY: Please indicate how the test categorized COc1cc(/C=C2\NC(=S)C3Cc4c(OC)c(C)c(OC)c(OC)c4C2N3C)c(OC)c(C)c1OC (stereo not given) .
RESULT: NO

QUERY: Please indicate how the test categorized CCOc1cc(/C=C/C=C/C=C/c2ccc(N(C)C)cc2)[s+]c2ccccc12 .
RESULT: NO

QUERY: Please indicate how the test categorized Cc1cc2ccccc2c[n+]1CC(=O)CC([O-])(C(F)(F)F)C(F)(F)F .
RESULT: NO

QUERY: Please indicate how the test categorized CC(C)(C)c1c(C(C)(C)C)c(=O)c1=O .
RESULT: NO

QUERY: Please indicate how the test categorized CC(C)N1CN(c2ccccc2)C2(CCN(CCCC(=O)c3ccc(F)cc3)CC2)C1=O .
RESULT: NO

QUERY: Please indicate how the test categorized CC(NC(=O)C(C)C(=O)Nc1ccc(C(F)(F)F)cc1)C(N)=O (stereo not given) .
RESULT: NO

QUERY: Please indicate how the test categorized Cc1cccc2c3ccc4c(c3n(C)c12)C(=O)C=CC4=O .
RESULT: NO

QUERY: Please indicate how the test categorized Cc1c2ncccc2c(C)c2c1[nH]c1ccccc12 .
RESULT: NO

QUERY: Please indicate how the test categorized Nc1ncnc2c1ncn2C1CCC(CP(=O)(O)O)C1 (stereo not given) .
RESULT: NO

QUERY: Please indicate how the test categorized CC(=O)ON(C(C)=O)C1C(COC(c2ccccc2)(c2ccccc2)c2ccccc2)OC2OC3(CCCC3)OC21 (stereo not given) .
RESULT: NO

QUERY: Please indicate how the test categorized C/C(=N\NC(=S)N1CCN(c2ccccn2)CC1)c1ncccn1 .
RESULT: YES

QUERY: Please indicate how the test categorized CN[C@@H](C)[C@@H](O)c1ccccc1 [PSEUDOEPHEDRINE HYDROCHLORIDE] .
RESULT: NO

QUERY: Please indicate how the test categorized CC(=O)OC1=C(c2ccccc2)S(=O)(=O)c2ccccc21 .
RESULT: NO

QUERY: Please indicate how the test categorized Nc1ncnc2c1nc(-c1ccccc1)n2C1OC(CO)C(O)C1O (stereo not given) .
RESULT: NO

QUERY: Please indicate how the test categorized [O-][S+]1c2ccccc2NC(c2ccc3ccccc3c2)CC1c1ccccc1 (stereo not given) .
RESULT: NO

QUERY: Please indicate how the test categorized COc1ccc2nc3cc(Cl)ccc3c(Sc3ccccc3[N+](=O)[O-])c2c1 .
RESULT: NO

QUERY: Please indicate how the test categorized O=C(O)c1cccc(/N=N/c2c(S(=O)(=O)O)ccc3c2C(=O)c2ccccc2C3=O)c1O .
RESULT: NO

QUERY: Please indicate how the test categorized Cc1cc(O)nc2cc3oc4ccccc4c3cc12 .
RESULT: NO

QUERY: Please indicate how the test categorized CN(C)CCC(CCN(C)C)=NO .
RESULT: NO

QUERY: Please indicate how the test categorized Fc1c(F)c(C(F)(F)F)c(F)c(F)c1N/N=C\c1c[nH]c2ccccc12 .
RESULT: NO

QUERY: Please indicate how the test categorized Cc1ccc(S(=O)(=O)N/N=c2/sc3ccccc3n2C)cc1 .
RESULT: NO

QUERY: Please indicate how the test categorized COc1ccc(C(=O)O/N=C2/CCCCC2CN(C)C)cc1 (stereo not given) .
RESULT: NO

QUERY: Please indicate how the test categorized Cc1c(O)nc(/C=C/C(=O)O)nc1C(=O)O .
RESULT: NO

QUERY: Please indicate how the test categorized CC1CN=C(Nc2cccc(C(F)(F)F)c2)S1 (stereo not given) .
RESULT: NO
